Every entry's value here was drawn from patent US6605628B1.

Readings of IC50 for the listed compounds
Target: FPTase (Homo sapiens, UniProt P49354+P49356)
Assay: in vitro FTase Inhibition Assay, K-Ras used as substrate for farnesylation
Type: biochemical
Conditions: Table I
Procedure: Enzyme test procedure: FPTase inhibition in vitro assay was performed according to James, G. L., Brown, M. S., and Goldstein, J. L., Methods in Enzymology, 1995, 255, 38-46; and Garcia, M. A., et al., J. Biol. Chem., 1993, 268, 18415-18420. […] Analysis of Results—Percent inhibition by test compounds is determined by the following: […]

>  <compound>
COc1ccc(S(=O)(=O)C2(CCCC#Cc3cc(Cl)ccc3C)SC(=O)NC2=O)cc1 (stereo not drawn)

>  <IC50>
300 to 420 nM

$$$$
>  <compound>
CCCCOC(=O)Nc1ccc(C)c(C#CCCCC2(S(=O)(=O)c3ccc(OC)cc3)SC(=O)N(C(=O)OCCCC)C2=O)c1 (stereo not drawn)

>  <IC50>
100 to 1000 nM

$$$$
>  <compound>
Cc1ccc(C#CCCCC2(S(=O)(=O)c3ccc(I)cc3)SC(=O)NC2=O)c(C)c1 (stereo not drawn)

>  <IC50>
37 to 800 nM

$$$$
>  <compound>
O=C1NC(=O)C(CCCC#Cc2ccc(Cl)cc2)(S(=O)(=O)c2cccc3ccccc23)S1 (stereo not drawn)

>  <IC50>
750 to 800 nM

$$$$
>  <compound>
COc1ccc(S(=O)(=O)C2(CCCC#Cc3ccc(OC(F)(F)F)cc3)SC(=O)NC2=O)cc1 (stereo not drawn)

>  <IC50>
1000 to 2500 nM

$$$$
>  <compound>
COc1ccc(S(=O)(=O)C2(CCCC#Cc3cc(NC(=O)OC(C)C)ccc3C)SC(=O)NC2=O)cc1 (stereo not drawn)

>  <IC50>
5 to 70 nM

$$$$
>  <compound>
Cc1ccc([N+](=O)[O-])cc1C#CCCCC1(S(=O)(=O)c2ccc3ccccc3c2)SC(=O)NC1=O (stereo not drawn)

>  <IC50>
1300 to 1500 nM

$$$$
>  <compound>
COc1ccc(S(=O)(=O)C2(CCCC#Cc3cc(NC(=O)OCC(C)C)ccc3C)SC(=O)N(C(=O)OCC(C)C)C2=O)cc1 (stereo not drawn)

>  <IC50>
40 to 640 nM

$$$$
>  <compound>
CCCCOc1ccc(S(=O)(=O)C2(CCCC#Cc3ccc(Cl)cc3)SC(=O)NC2=O)cc1 (stereo not drawn)

>  <IC50>
1400 to 1500 nM

$$$$
>  <compound>
COc1ccc(S(=O)(=O)C2(CCCC#Cc3ccc(C)cc3C)SC(=O)NC2=O)cc1 (stereo not drawn)

>  <IC50>
1000 to 1900 nM

$$$$
>  <compound>
O=C1NC(=O)C(CCCC#Cc2cccc([N+](=O)[O-])c2)(S(=O)(=O)c2ccc(Oc3ccccc3)cc2)S1 (stereo not drawn)

>  <IC50>
1300 to 1700 nM

$$$$
>  <compound>
Cc1ccc(C)c(C#CCCCC2(S(=O)(=O)c3ccc(I)cc3)SC(=O)NC2=O)c1 (stereo not drawn)

>  <IC50>
430 to 680 nM

$$$$
>  <compound>
COc1ccc(S(=O)(=O)C2(CCCC#Cc3cccs3)SC(=O)NC2=O)cc1 (stereo not drawn)

>  <IC50>
5300 nM

$$$$
>  <compound>
COc1ccc(S(=O)(=O)C2(CCCC#Cc3cc(F)cc([N+](=O)[O-])c3)SC(=O)NC2=O)cc1 (stereo not drawn)

>  <IC50>
54 to 1000 nM

$$$$
>  <compound>
COc1ccc(S(=O)(=O)C2(CCCC#Cc3cc(C(=O)NC(C)(C)C)ccc3C)SC(=O)NC2=O)cc1 (stereo not drawn)

>  <IC50>
100 to 230 nM

$$$$
>  <compound>
Cc1ccc(S(=O)(=O)C2(CC#Cc3ccc(Oc4ccccc4)cc3)SC(=O)NC2=O)cc1 (stereo not drawn)

>  <IC50>
4700 nM

$$$$
>  <compound>
Cc1ccc(S(=O)(=O)C2(CC#Cc3ccc(-c4ccccc4)cc3)SC(=O)NC2=O)cc1 (stereo not drawn)

>  <IC50>
1800 nM

$$$$
>  <compound>
COc1ccc(S(=O)(=O)C2(CCCC#Cc3cc(NC(=O)OC(C)(C)C)ccc3C)SC(=O)NC2=O)cc1 (single isomer, unassigned; less polar) [Example 222]

>  <IC50>
33 nM

$$$$
>  <compound>
COc1ccc(S(=O)(=O)C2(CCCC#Cc3cccc(N)c3)SC(=O)NC2=O)cc1 (stereo not drawn)

>  <IC50>
3000 nM

$$$$
>  <compound>
COc1ccc(S(=O)(=O)C2(CCCC#Cc3ccc(NC(=O)OC(C)(C)C)cc3C(F)(F)F)SC(=O)NC2=O)cc1 (stereo not drawn)

>  <IC50>
210 to 1000 nM

$$$$
>  <compound>
COc1ccc(S(=O)(=O)C2(CCCC#Cc3ccc(C(F)(F)F)cc3)SC(=O)NC2=O)cc1 (stereo not drawn)

>  <IC50>
1000 to 6100 nM

$$$$
>  <compound>
COc1ccc(S(=O)(=O)C2(CCCC#Cc3cc(NC(=O)OCC(C)(C)C)ccc3C)SC(=O)NC2=O)cc1 (stereo not drawn)

>  <IC50>
7 to 90 nM

$$$$
>  <compound>
Cc1ccc(S(=O)(=O)C2(CCCC#Cc3ccc(Cl)cc3)SC(=O)NC2=O)cc1 (stereo not drawn)

>  <IC50>
900 to 10000 nM

$$$$
>  <compound>
COc1ccc(S(=O)(=O)C2(CCCC#Cc3ccc(Cl)cc3)SC(=O)NC2=O)cc1 (stereo not drawn)

>  <IC50>
3500 to 5500 nM

$$$$
>  <compound>
COc1ccc(S(=O)(=O)C2(CCCC#Cc3cc(Cl)ccc3Cl)SC(=O)NC2=O)cc1 (stereo not drawn)

>  <IC50>
32 to 320 nM

$$$$
>  <compound>
O=C1NC(=O)C(CCCC#Cc2ccc([N+](=O)[O-])cc2)(S(=O)(=O)c2ccc(I)cc2)S1 (stereo not drawn)

>  <IC50>
530 to 1000 nM

$$$$
>  <compound>
Cc1ccc(NC(=O)OC(C)(C)C)cc1C#CCCCC1(S(=O)(=O)c2ccc(I)cc2)SC(=O)NC1=O (stereo not drawn)

>  <IC50>
23 to 31 nM

$$$$
>  <compound>
Cc1ccc(S(=O)(=O)C2(CCCC#Cc3ccc(S(C)(=O)=O)cc3)SC(=O)NC2=O)cc1 (stereo not drawn)

>  <IC50>
> 10000 nM

$$$$
>  <compound>
COc1ccc(S(=O)(=O)C2(CCCC#Cc3ccc(Cl)cc3C)SC(=O)NC2=O)cc1 (stereo not drawn)

>  <IC50>
40 to 1000 nM

$$$$
>  <compound>
COc1ccc(S(=O)(=O)C2(CCCC#Cc3ccc(NC(=O)OC(C)(C)C)cc3)SC(=O)NC2=O)cc1 (stereo not drawn)

>  <IC50>
5600 to 10000 nM

$$$$

====

target: FPTase (Homo sapiens, UniProt P49354+P49356); assay: in vitro FTase Inhibition Assay, H-Ras used as substrate for farnesylation; format: biochemical; conditions: Table II, read-out: IC50 (wi. H-Ras)
pIC50: −log10 of the molar value.
Some compounds, each annotated with its measured pIC50.
observed-property: pIC50

>  <compound>
O=C1NC(=O)C(CC#Cc2ccc(Cl)cc2)(S(=O)(=O)c2ccc3ccccc3c2)S1 (centres unmarked) [Example 239]

>  <measurement-target>
FPTase (Homo sapiens, UniProt P49354+P49356)

>  <recorded-measurement>
6.15

$$$$
>  <compound>
O=C1NC(=O)C(CC#Cc2ccccc2Cl)(S(=O)(=O)c2ccccc2)S1 (centres unmarked) [Example 258]

>  <measurement-target>
FPTase (Homo sapiens, UniProt P49354+P49356)

>  <recorded-measurement>
5.70

$$$$
>  <compound>
Cc1ccc(S(=O)(=O)C2(CC#Cc3ccc(C(F)(F)F)cc3)SC(=O)NC2=O)cc1 (centres unmarked) [Example 251]

>  <measurement-target>
FPTase (Homo sapiens, UniProt P49354+P49356)

>  <recorded-measurement>
6.82

$$$$
>  <compound>
O=C1NC(=O)C(CC#Cc2ccc(Cl)cc2)(S(=O)(=O)c2ccc3ccccc3n2)S1 (centres unmarked) [Example 265]

>  <measurement-target>
FPTase (Homo sapiens, UniProt P49354+P49356)

>  <recorded-measurement>
5.82

$$$$
>  <compound>
O=C1NC(=O)C(CC#Cc2ccccc2)(S(=O)(=O)c2ccc3ccccc3c2)S1 (centres unmarked) [Example 250]

>  <measurement-target>
FPTase (Homo sapiens, UniProt P49354+P49356)

>  <recorded-measurement>
5.82

$$$$
>  <compound>
Cc1ccc(S(=O)(=O)C2(CC#Cc3ccc(F)cc3)SC(=O)NC2=O)cc1 (centres unmarked) [Example 246]

>  <measurement-target>
FPTase (Homo sapiens, UniProt P49354+P49356)

>  <recorded-measurement>
6.52

$$$$
>  <compound>
COc1ccc(S(=O)(=O)C2(CC#Cc3ccc(Cl)cc3)SC(=O)NC2=O)cc1 (centres unmarked) [Example 249]

>  <measurement-target>
FPTase (Homo sapiens, UniProt P49354+P49356)

>  <recorded-measurement>
6.40

$$$$
>  <compound>
O=C1NC(=O)C(CC#Cc2ccc(C(F)(F)F)cc2)(S(=O)(=O)c2ccc(F)cc2)S1 (centres unmarked) [Example 264]

>  <measurement-target>
FPTase (Homo sapiens, UniProt P49354+P49356)

>  <recorded-measurement>
6.52

$$$$
>  <compound>
O=C1NC(=O)C(CC#Cc2ccc(Cl)cc2)(S(=O)(=O)c2ccc(Cl)cc2)S1 (centres unmarked) [Example 244]

>  <measurement-target>
FPTase (Homo sapiens, UniProt P49354+P49356)

>  <recorded-measurement>
7.00

$$$$
>  <compound>
O=C1NC(=O)C(CC#Cc2cc(C(F)(F)F)cc(C(F)(F)F)c2)(S(=O)(=O)c2ccccc2)S1 (centres unmarked) [Example 259]

>  <measurement-target>
FPTase (Homo sapiens, UniProt P49354+P49356)

>  <recorded-measurement>
6.82

$$$$
>  <compound>
O=C1NC(=O)C(CC#Cc2ccc(Cl)cc2)(S(=O)(=O)c2ccccc2)S1 (centres unmarked) [Example 240]

>  <measurement-target>
FPTase (Homo sapiens, UniProt P49354+P49356)

>  <recorded-measurement>
6.30

$$$$
>  <compound>
O=C1NC(=O)C(CC#Cc2ccccc2)(S(=O)(=O)c2ccc(Br)cc2)S1 (centres unmarked) [Example 248]

>  <measurement-target>
FPTase (Homo sapiens, UniProt P49354+P49356)

>  <recorded-measurement>
6.35

$$$$
>  <compound>
O=C1NC(=O)C(CC#Cc2ccc(Cl)cc2)(S(=O)(=O)c2ccc(F)cc2)S1 (centres unmarked) [Example 243]

>  <measurement-target>
FPTase (Homo sapiens, UniProt P49354+P49356)

>  <recorded-measurement>
6.52

$$$$
>  <compound>
O=C1NC(=O)C(CC#Cc2ccccc2)(S(=O)(=O)c2ccc(Cl)cc2)S1 (centres unmarked) [Example 242]

>  <measurement-target>
FPTase (Homo sapiens, UniProt P49354+P49356)

>  <recorded-measurement>
6.00

$$$$
>  <compound>
Cc1cccc(S(=O)(=O)C2(CC#Cc3ccc(Cl)cc3)SC(=O)NC2=O)c1 (centres unmarked) [Example 256]

>  <measurement-target>
FPTase (Homo sapiens, UniProt P49354+P49356)

>  <recorded-measurement>
6.10

$$$$
>  <compound>
Cc1ccc(SC2(CC#Cc3ccc(Cl)cc3)SC(=O)NC2=O)cc1 (centres unmarked) [Example 267]

>  <measurement-target>
FPTase (Homo sapiens, UniProt P49354+P49356)

>  <recorded-measurement>
5.30

$$$$
>  <compound>
O=C1NC(=O)C(CC#Cc2ccccc2)(S(=O)(=O)c2ccccc2)S1 (centres unmarked) [Example 241]

>  <measurement-target>
FPTase (Homo sapiens, UniProt P49354+P49356)

>  <recorded-measurement>
5.82

$$$$
